# Lookup of reported TP keyed by entry
Species: Rattus norvegicus
Method Description: Open TG-GATES - Regimen: Single
Assay type: toxicity, organism-based, Sprague-Dawley
Design: regimen Single, gender Male, age 6 weeks
Condition Info: in vivo, po, 0 mg/kg, 9 h, tissue Plasma, route gavage, dose level Control
Kindly answer with a numeric value in g/dL, unit omitted.

Example cases with answers are listed next.
Compound | Recorded Measurement
CCN(CC)N=O | 5.6
O=C(O)COc1nn(Cc2ccccc2)c2ccccc12 | 5.5
CC(C)Cc1ccc(C(C)C(=O)O)cc1 (configuration not stated) | 5.5
CC(=O)N1CCN(c2ccc(OCC3COC(Cn4ccnc4)(c4ccc(Cl)cc4Cl)O3)cc2)CC1 (configuration not stated) | 5.5
CC(=O)Nc1ccc2c(c1)Cc1ccccc1-2 | 5.7
CC(CCc1ccccc1)NCC(O)c1ccc(O)c(C(N)=O)c1 (configuration not stated) | 5.5

Let us move to another entry and its TP.
stdin: Please look up its TP: `CC[C@@H](CO)NCCN[C@@H](CC)CO`
stdout: 5.6

---

Species: Rattus norvegicus
Method Description: Open TG-GATES - Regimen: Single
Format: toxicity, organism-based, Sprague-Dawley
Set-up: regimen Single, gender Male, age 6 weeks
Condition Info: in vivo, po, 0 mg/kg, 24 h, tissue Blood, route gavage, dose level Control
# Lookup of reported Fbg keyed by entry
Kindly answer with a numeric value in mg/dL, unit omitted.

Compound | Metric | Recorded Measurement
O=C(O)COc1nn(Cc2ccccc2)c2ccccc12 | Fbg | 210.8
CC(=O)N1CCN(c2ccc(OCC3COC(Cn4ccnc4)(c4ccc(Cl)cc4Cl)O3)cc2)CC1 (configuration not stated) | Fbg | 307.2
CC(C)Cc1ccc(C(C)C(=O)O)cc1 (configuration not stated) | Fbg | 306
CC(=O)Nc1ccc2c(c1)Cc1ccccc1-2 | Fbg | 217.2
CC[C@@H](CO)NCCN[C@@H](CC)CO | Fbg | 311.8
CC(CCc1ccccc1)NCC(O)c1ccc(O)c(C(N)=O)c1 (configuration not stated) | Fbg | 294.8

Let us move to another entry and its Fbg.
stdin: Please look up its Fbg: `CCN(CC)N=O`
stdout: 226.2

---

Organism: Rattus norvegicus
Method Description: Open TG-GATES - Regimen: Single
Assay type: toxicity, organism-based, Sprague-Dawley
Design: regimen Single, gender Male, age 6 weeks
Condition Info: in vivo, po, 0 mg/kg, 3 h, tissue Blood, route gavage, dose level Control
# Lookup of reported Plat keyed by entry
Kindly answer with a numeric value in x10_4/uL, unit omitted.

Example cases with answers are listed next.
Molecule | Plat (x10_4/uL)
CC(C)Cc1ccc(C(C)C(=O)O)cc1 (configuration not stated) [IBUPROFEN] | 113
CC(=O)Nc1ccc2c(c1)Cc1ccccc1-2 [2-ACETYLAMINOFLUORENE] | 128.1
CC[C@@H](CO)NCCN[C@@H](CC)CO [ETHAMBUTOL] | 118.8
CC(CCc1ccccc1)NCC(O)c1ccc(O)c(C(N)=O)c1 (configuration not stated) [LABETALOL] | 108.8
CCN(CC)N=O [N-NITROSODIETHYLAMINE] | 127.6
CC(=O)N1CCN(c2ccc(OCC3COC(Cn4ccnc4)(c4ccc(Cl)cc4Cl)O3)cc2)CC1 (configuration not stated) [KETOCONAZOLE] | 117

Let us move to another entry and its Plat.
stdin: Please look up its Plat: O=C(O)COc1nn(Cc2ccccc2)c2ccccc12 [BENDAZAC]
stdout: 119

---

Species on record: Rattus norvegicus
Method Description: Open TG-GATES - Regimen: Daily Repeat
Type: toxicity, organism-based, Sprague-Dawley
Design: regimen Daily Repeat, gender Male, age 6 weeks
Condition Info: in vivo, po, 0 mg/kg, […], tissue Plasma, route gavage, dose level Control, time 28 day
# Lookup of reported TG keyed by entry
Kindly answer with a numeric value in mg/dL, unit omitted.

Example cases with answers are listed next.
Compound | Unit Info | TG
CCN(CC)N=O [N-NITROSODIETHYLAMINE] | mg/dL | 104
CC[C@@H](CO)NCCN[C@@H](CC)CO [ETHAMBUTOL] | mg/dL | 100.8
O=C(O)COc1nn(Cc2ccccc2)c2ccccc12 [BENDAZAC] | mg/dL | 130

stdin: Please look up its TG: CC(CCc1ccccc1)NCC(O)c1ccc(O)c(C(N)=O)c1 (stereo not drawn) [LABETALOL]
stdout: 143.2

stdin: Please look up its TG: CC(=O)N1CCN(c2ccc(OCC3COC(Cn4ccnc4)(c4ccc(Cl)cc4Cl)O3)cc2)CC1 (stereo not drawn) [KETOCONAZOLE]
stdout: 153.2

---

Species: Rattus norvegicus
Method Description: Open TG-GATES - Regimen: Single
Assay type: toxicity, organism-based, Sprague-Dawley
Set-up: regimen Single, gender Male, age 6 weeks
Condition Info: in vivo, po, 0 mg/kg, 24 h, tissue Blood, route gavage, dose level Control
Metric: RBC (x10_4/ul)
Kindly answer with a numeric value in x10_4/ul, unit omitted.

Example cases with answers are listed next.
Molecule | RBC, x10_4/ul
CC(C)Cc1ccc(C(C)C(=O)O)cc1 (configuration not stated) | 609.8
CCN(CC)N=O | 627.2
CC(CCc1ccccc1)NCC(O)c1ccc(O)c(C(N)=O)c1 (configuration not stated) | 603.2
O=C(O)COc1nn(Cc2ccccc2)c2ccccc12 | 609.6

stdin: Please look up its RBC: CC(=O)N1CCN(c2ccc(OCC3COC(Cn4ccnc4)(c4ccc(Cl)cc4Cl)O3)cc2)CC1 (configuration not stated)
stdout: 609

stdin: Please look up its RBC: `CC[C@@H](CO)NCCN[C@@H](CC)CO`
stdout: 618.2

stdin: Please look up its RBC: `CC(=O)Nc1ccc2c(c1)Cc1ccccc1-2`
stdout: 612

---

Species on record: Rattus norvegicus
Method Description: Open TG-GATES - Regimen: Single
Format: toxicity, organism-based, Sprague-Dawley
Parameters: regimen Single, gender Male, age 6 weeks
Condition Info: in vivo, po, 0 mg/kg, 6 h, tissue Plasma, route gavage, dose level Control
Metric: ALT (IU/L)
Kindly answer with a numeric value in IU/L, unit omitted.

Example cases with answers are listed next.
Molecule | Unit Info | ALT
CC(C)Cc1ccc(C(C)C(=O)O)cc1 (stereo unspecified) [IBUPROFEN] | IU/L | 39.6
CCN(CC)N=O [N-NITROSODIETHYLAMINE] | IU/L | 34.2
O=C(O)COc1nn(Cc2ccccc2)c2ccccc12 [BENDAZAC] | IU/L | 33.2

stdin: Please look up its ALT: CC(CCc1ccccc1)NCC(O)c1ccc(O)c(C(N)=O)c1 (stereo unspecified) [LABETALOL]
stdout: 39.8

stdin: Please look up its ALT: CC[C@@H](CO)NCCN[C@@H](CC)CO [ETHAMBUTOL]
stdout: 35

stdin: Please look up its ALT: CC(=O)Nc1ccc2c(c1)Cc1ccccc1-2 [2-ACETYLAMINOFLUORENE]
stdout: 32.4

---

Species: Rattus norvegicus
Method Description: Open TG-GATES - Regimen: Daily Repeat
Type: toxicity, organism-based, Sprague-Dawley
Parameters: regimen Daily Repeat, gender Male, age 6 weeks
Condition Info: in vivo, po, 0 mg/kg, […], tissue Blood, route gavage, dose level Control, time 7 day
Metric: Neu (%)
Kindly answer with a numeric value in %, unit omitted.

Molecule | Unit Info | Neu
CC(CCc1ccccc1)NCC(O)c1ccc(O)c(C(N)=O)c1 (configuration not stated) [LABETALOL] | % | 16.8
CCN(CC)N=O [N-NITROSODIETHYLAMINE] | % | 16
CC(=O)Nc1ccc2c(c1)Cc1ccccc1-2 [2-ACETYLAMINOFLUORENE] | % | 13
O=C(O)COc1nn(Cc2ccccc2)c2ccccc12 [BENDAZAC] | % | 12.6
CC(=O)N1CCN(c2ccc(OCC3COC(Cn4ccnc4)(c4ccc(Cl)cc4Cl)O3)cc2)CC1 (configuration not stated) [KETOCONAZOLE] | % | 17.8
CC(N)=O [ACETAMIDE] | % | 19.8

stdin: Please look up its Neu: CC[C@@H](CO)NCCN[C@@H](CC)CO [ETHAMBUTOL]
stdout: 12.8

---

Species: Rattus norvegicus
Method Description: Open TG-GATES - Regimen: Daily Repeat
Assay type: toxicity, organism-based, Sprague-Dawley
Design: regimen Daily Repeat, gender Male, age 6 weeks
Condition Info: in vivo, po, 0 mg/kg, […], tissue Plasma, route gavage, dose level Control, time 28 day
Threshold check on TP: at or above 6 g/dL gives 1, strictly below gives -1.

Record excerpt, results attached:
Molecule | Group
CC(=O)Nc1ccc2c(c1)Cc1ccccc1-2 | -1
CC(CCc1ccccc1)NCC(O)c1ccc(O)c(C(N)=O)c1 (stereo not drawn) | 1
O=C(O)COc1nn(Cc2ccccc2)c2ccccc12 | 1

As a next step, examine the molecule that follows.
stdin: Please check the record `CC[C@@H](CO)NCCN[C@@H](CC)CO` and state if its TP is at or above 6 g/dL.
stdout: 1

Source listed as ChEMBL document CHEMBL3885861.
